# ASSAYED_TARGET: Acetylcholinesterase (Torpedo californica, UniProt P04058)
# Sequence (P04058 whole entry): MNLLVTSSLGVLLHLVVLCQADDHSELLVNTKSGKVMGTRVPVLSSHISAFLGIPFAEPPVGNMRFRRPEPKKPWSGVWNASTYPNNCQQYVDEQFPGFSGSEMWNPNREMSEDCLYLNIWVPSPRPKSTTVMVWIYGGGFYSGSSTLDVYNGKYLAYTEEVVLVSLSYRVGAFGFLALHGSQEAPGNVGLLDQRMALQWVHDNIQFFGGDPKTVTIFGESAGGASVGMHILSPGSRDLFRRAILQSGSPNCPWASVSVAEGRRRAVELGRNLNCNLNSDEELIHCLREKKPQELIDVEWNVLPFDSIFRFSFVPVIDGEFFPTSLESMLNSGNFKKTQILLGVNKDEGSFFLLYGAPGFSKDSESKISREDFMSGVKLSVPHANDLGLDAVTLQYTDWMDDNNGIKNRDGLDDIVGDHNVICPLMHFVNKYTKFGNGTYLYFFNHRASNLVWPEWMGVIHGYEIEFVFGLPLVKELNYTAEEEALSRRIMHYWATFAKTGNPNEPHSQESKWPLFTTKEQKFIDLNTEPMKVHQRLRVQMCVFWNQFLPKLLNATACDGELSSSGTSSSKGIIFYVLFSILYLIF

MOLECULE | Ki / µM
CC(C)[C@@H]1CC[C@@]2(C)[C@H]1[C@H]1CC[C@@H]3[C@@]4(C)CC[C@H](OS(=O)(=O)O)C(C)(C)[C@@H]4CC[C@@]3(C)[C@]1(C)C[C@@H]2OS(=O)(=O)O | 144

* * *

IC50 data for Cholinesterase (Equus caballus, UniProt P81908) follow.

COMPOUND | MODIFIER_SIGN | IC50 (µM)
C=C(C=O)[C@@H]1CC[C@]2(C)C(=O)C[C@]3(C)[C@H](CC[C@@H]4[C@@]5(C)CCC(=O)C(C)(C)[C@@H]5CC[C@]43C)[C@@H]12 | = | 21.5
C=C(CO)[C@@H]1CC[C@@]2(C)[C@H]1[C@H]1CC[C@@H]3[C@@]4(C)CC[C@H](OS(=O)(=O)O)C(C)(C)[C@@H]4CC[C@@]3(C)[C@]1(C)C[C@@H]2OS(=O)(=O)O | = | 188
C=C(C)[C@@H]1CC[C@@]2(C)[C@H]1[C@H]1CCC3[C@@]4(C)CC[C@H](O)C(C)(C)[C@@H]4CC[C@@]3(C)[C@]1(C)C[C@@H]2O (stereo partly drawn) | > | 200
